Values compiled from patent US8536160B2.

# System: anesthetized guinea-pig
# assay.remarks: Inotropic effect and lethal dose, slow intravenous infusion in anesthetized guinea-pig
# Format: in vivo
# test.conditions: duration of the inotropic effect; anesthetized guinea-pig
Counter-ions that a name gives are not always drawn.
Property: % decrease from Emax after 20 min from the end of the infusion; scope: individual compounds
The reply should be a number in %, with the unit left off.

C[C@]12CCC(=NO[C@@H]3CCNC3)C[C@@H]1[C@@H](C(N)=O)C[C@@H]1[C@@H]2CC[C@]2(C)C(=O)CC[C@@H]12.Cl; 16
CC12CCC3C(CC(=C(F)F)C4CC(=NOC5CCNC5)CCC43C)C1CCC2=O (mixture of isomers) [I-az, hydrochloride]; 20
CC12CCC3C(CC(=NO)C4CC(=NOC5CCNC5)CCC43C)C1CCC2=O (mixture of isomers) [I-av, hydrochloride]; 100
C[C@]12CC[C@H]3[C@@H](CC[C@@]4(O)CC(=NO[C@@H]5CCNC5)CC[C@]34C)[C@@H]1CCC2=O (mixture of isomers); 100
C[C@]12CCC(=NOCCN)CC1C(=O)C[C@@H]1[C@@H]2CC[C@]2(C)C(=O)CC[C@@H]12.Cl (mixture of isomers) [compd 22b, reference compound]; 100

Let us examine a further case.
// query Query % decrease from Emax after 20 min from the end of the infusion on anesthetized guinea-pig for C[C@H]1O[C@@H](O[C@H]2[C@@H](O)C[C@H](O[C@H]3[C@@H](O)C[C@H](O[C@H]4CC[C@@]5(C)[C@H](CC[C@@H]6[C@@H]5C[C@@H](O)[C@]5(C)[C@@H](C7=CC(=O)OC7)CC[C@]65O)C4)O[C@@H]3C)O[C@@H]2C)C[C@H](O)[C@@H]1O [digoxin, reference compound]
// result 100
